Value source: patent US20050197350A1

# key: entry, value: IC50
target: MCH receptor (Homo sapiens, UniProt Q99705); test: High throughput functional screening FLIPR/FDSS6000 (intracellular Ca2+ evoked by MCH); type: cell-based; conditions: FLIPR/FDSS, antagonist activity vs 50 nM MCH; class by percent of control at 10^−7 M or IC50; table after the classification; read-out: class
Where a name gives a salt, the structure may show the parent alone.
ASSAY_METRIC: IC50

{"columns": ["COMPOUND", "ASSAY_METRIC", "READING"],
 "data": [
  ["Cc1cnc(N[C@H]2CC[C@@H](NC(=O)Cc3ccc(F)c(F)c3)CC2)nc1N(C)C [Example 3391, hydrochloride]", "IC50", "< 50 nM"],
  ["O=C(N[C@H]1CC[C@@H](Nc2ccc3ccccc3n2)CC1)c1cccc(OC(F)(F)F)c1 [Example 3149, hydrochloride]", "IC50", "50 to 200 nM"],
  ["Cc1cc(N[C@H]2CC[C@@H](NC(=O)c3cccc(OC(F)(F)F)c3)CC2)nc2ccccc12 [Example 3158, hydrochloride]", "IC50", "< 50 nM"],
  ["O=C(N[C@H]1CC[C@@H](Nc2ccc3ccccc3n2)CC1)c1cccnc1Oc1ccc(Br)cc1 [Example 3058, hydrochloride]", "IC50", "< 50 nM"],
  ["O=C(N[C@H]1CC[C@@H](Nc2ccc3ccccc3n2)CC1)c1ccc(Cl)c(F)c1", "IC50", "< 50 nM"],
  ["COc1cccc(C(=O)N[C@H]2CC[C@@H](Nc3ccc4ccccc4n3)CC2)c1", "IC50", "< 50 nM"],
  ["CN(C)c1ccnc(N[C@H]2CC[C@@H](NC(=O)c3cc(Cl)ccn3)CC2)n1 [Example 3213, hydrochloride]", "IC50", "> 200 nM"]
]}

====

molecular target: MCH receptor (Homo sapiens, UniProt Q99705); experiment: High throughput functional screening FLIPR/FDSS6000 (intracellular Ca2+ evoked by MCH); format: cell-based; conditions: FLIPR/FDSS, antagonist activity vs 50 nM MCH; class by percent of control at 10^−7 M or IC50; table after the classification; read-out: class
Structures can show the parent of a compound that is named as a salt.
Reported IC50 by item:

{"columns": ["MOLECULE", "SYSTEM_TESTED", "IC50"],
 "data": [
  ["Cc1cc(N[C@H]2CC[C@@H](NC(=O)c3cccnc3Oc3ccccc3)CC2)nc2ccccc12 [Example 3070, hydrochloride]", "MCH receptor (Homo sapiens, UniProt Q99705)", "< 50 nM"],
  ["NC(=O)c1cccc(C(=O)N[C@H]2CC[C@@H](Nc3ccc4ccccc4n3)CC2)c1 [Example 3155, hydrochloride]", "MCH receptor (Homo sapiens, UniProt Q99705)", "> 200 nM"],
  ["O=C(COc1ccc(Cl)c(Cl)c1)N[C@H]1CC[C@@H](Nc2ccc3ccccc3n2)CC1 [Example 3065, hydrochloride]", "MCH receptor (Homo sapiens, UniProt Q99705)", "< 50 nM"],
  ["Cc1cc(N[C@H]2CC[C@@H](NC(=O)c3cc([N+](=O)[O-])cn3C)CC2)nc2ccccc12 [Example 3081, hydrochloride]", "MCH receptor (Homo sapiens, UniProt Q99705)", "< 50 nM"],
  ["Cc1cc(N[C@H]2CC[C@@H](NC(=O)c3cccnc3Oc3ccc(Cl)cc3)CC2)nc2ccccc12 [Example 3093, hydrochloride]", "MCH receptor (Homo sapiens, UniProt Q99705)", "< 50 nM"],
  ["Cc1cc(N[C@H]2CC[C@@H](NC(=O)c3cccc(CO)c3)CC2)nc2ccccc12 [Example 3177, hydrochloride]", "MCH receptor (Homo sapiens, UniProt Q99705)", "50 to 200 nM"],
  ["O=C(N[C@H]1CC[C@@H](Nc2ccc3ccccc3n2)CC1)c1cccc(O)c1 [Example 3146, hydrochloride]", "MCH receptor (Homo sapiens, UniProt Q99705)", "< 50 nM"],
  ["CNc1ccnc(N[C@H]2CC[C@@H](NC(=O)c3ccc(F)c(F)c3)CC2)n1", "MCH receptor (Homo sapiens, UniProt Q99705)", "> 200 nM"],
  ["Cc1cnc(N[C@H]2CC[C@@H](NC(=O)c3cccnc3Oc3ccccc3)CC2)nc1N(C)C [Example 3120, hydrochloride]", "MCH receptor (Homo sapiens, UniProt Q99705)", "< 50 nM"],
  ["CNc1nc(N[C@H]2CC[C@@H](NC(=O)c3ccc(F)c(Cl)c3)CC2)ncc1C [Example 3386, hydrochloride]", "MCH receptor (Homo sapiens, UniProt Q99705)", "< 50 nM"],
  ["COc1cccc(C(=O)N[C@H]2CC[C@@H](Nc3ncc(C)c(N(C)C)n3)CC2)c1 [Example 3122, hydrochloride]", "MCH receptor (Homo sapiens, UniProt Q99705)", "< 50 nM"],
  ["CN(C)c1ccnc(N[C@H]2CC[C@@H](NC(=O)c3cc(C(C)(C)C)c(O)c(C(C)(C)C)c3)CC2)n1 [Example 3217, hydrochloride]", "MCH receptor (Homo sapiens, UniProt Q99705)", "< 50 nM"],
  ["CN(C)c1ccnc(N[C@H]2CC[C@@H](NC(=O)c3ccc(F)cc3)CC2)n1 [Example 3214, hydrochloride]", "MCH receptor (Homo sapiens, UniProt Q99705)", "50 to 200 nM"],
  ["Cc1cc(N[C@H]2CC[C@@H](NC(=O)C3c4ccccc4Oc4ccccc43)CC2)nc2ccccc12 [Example 3082, hydrochloride]", "MCH receptor (Homo sapiens, UniProt Q99705)", "< 50 nM"]
]}

====

Reported IC50 values for the following compounds.
target: MCH receptor (Homo sapiens); test: High throughput functional screening FLIPR/FDSS6000 (intracellular Ca2+ evoked by MCH); type: cell-based; details: FLIPR/FDSS, antagonist activity vs 50 nM MCH; class by percent of control at 10^−7 M or IC50; read-out: class

{"columns": ["COMPOUND", "SYSTEM_TESTED", "IC50"],
 "data": [
  ["Cc1cccc(S(=O)(=O)c2ncccc2C(=O)N[C@H]2CC[C@@H](Nc3nc(C)cc(N(C)C)n3)CC2)c1", "MCH receptor (Homo sapiens)", "> 200 nM"],
  ["Cc1cc(N[C@H]2CC[C@@H](C(=O)N[C@H](C)c3ccc(OC(F)(F)F)cc3)CC2)nc2ccccc12", "MCH receptor (Homo sapiens)", "> 200 nM"],
  ["Cc1cnc(N[C@H]2CC[C@@H](NCC(=O)c3ccc(F)c(F)c3)CC2)nc1N(C)C", "MCH receptor (Homo sapiens)", "> 200 nM"],
  ["COc1cccc(NC(=O)N[C@H]2CC[C@@H](Nc3ncc(C)c(N(C)C)n3)CC2)c1", "MCH receptor (Homo sapiens)", "> 200 nM"],
  ["Cc1cnc(N[C@H]2CC[C@@H](NC(=O)[C@@H]3C[C@H]3c3ccc(Cl)c(Cl)c3)CC2)nc1N(C)C (relative stereo)", "MCH receptor (Homo sapiens)", "< 50 nM"],
  ["Cc1cnc(N[C@H]2CC[C@@H](NC(=O)Nc3ccccc3OC(F)(F)F)CC2)nc1N(C)C", "MCH receptor (Homo sapiens)", "< 50 nM"],
  ["Cc1cc(N(C)C)nc(N[C@H]2CC[C@@H](C(=O)NC(C)(C)c3ccc(Cl)cc3)CC2)n1", "MCH receptor (Homo sapiens)", "> 200 nM"]
]}

====

pIC50 listing for selected compounds.
target: MCH receptor (Homo sapiens, UniProt Q99705); test: High throughput functional screening FLIPR/FDSS6000 (intracellular Ca2+ evoked by MCH); type: cell-based; details: FLIPR/FDSS, antagonist activity vs 50 nM MCH; class by percent of control at 10^−7 M or IC50; table after the classification; read-out: class
pIC50: −log10 of the molar value. Structures can show the parent of a compound that is named as a salt.

{"columns": ["COMPOUND", "SYSTEM_TESTED", "pIC50"],
 "data": [
  ["O=C(N[C@H]1CC[C@@H](Nc2ccc3ccccc3n2)CC1)c1ccc(Cl)c(Cl)c1 [Example 3040, hydrochloride]", "MCH receptor (Homo sapiens, UniProt Q99705)", "> 7.30"],
  ["CN(C)N(c1ncc(Cl)cn1)[C@H]1CC[C@@H](NC(=O)c2cccnc2Oc2ccccc2)CC1 [Example 3137, hydrochloride]", "MCH receptor (Homo sapiens, UniProt Q99705)", "6.70 to 7.30"],
  ["COc1cc(N[C@H]2CC[C@@H](NC(=O)c3ccc(F)c(F)c3)CC2)nc2ccccc12 [Example 3116, hydrochloride]", "MCH receptor (Homo sapiens, UniProt Q99705)", "< 6.70"],
  ["Cc1cccc(OCC(=O)N[C@H]2CC[C@@H](Nc3cc(C)c4ccccc4n3)CC2)c1 [Example 3084, hydrochloride]", "MCH receptor (Homo sapiens, UniProt Q99705)", "> 7.30"],
  ["O=C(N[C@H]1CC[C@@H](Nc2cc(C(F)(F)F)c3ccccc3n2)CC1)c1ccc(F)c(F)c1 [Example 3237, hydrochloride]", "MCH receptor (Homo sapiens, UniProt Q99705)", "< 6.70"],
  ["O=C(N[C@H]1CC[C@@H](Nc2ccc3ccccc3n2)CC1)c1cc(F)cc(F)c1 [Example 3152, hydrochloride]", "MCH receptor (Homo sapiens, UniProt Q99705)", "> 7.30"],
  ["CN(C)c1cc(N[C@H]2CC[C@@H](NC(=O)c3ccc(F)c(F)c3)CC2)nc2ccccc12 [Example 3188, hydrochloride]", "MCH receptor (Homo sapiens, UniProt Q99705)", "> 7.30"],
  ["CN(C)c1ccnc(N[C@H]2CC[C@@H](NC(=O)c3cc(F)c(F)c(F)c3)CC2)n1 [Example 3216, hydrochloride]", "MCH receptor (Homo sapiens, UniProt Q99705)", "> 7.30"],
  ["CN(C)c1nc(N[C@H]2CC[C@@H](NC(=O)c3csc([N+](=O)[O-])c3)CC2)nc2c1CCCC2 [Example 3193, hydrochloride]", "MCH receptor (Homo sapiens, UniProt Q99705)", "> 7.30"],
  ["CN(C)c1ccnc(N[C@H]2CC[C@@H](NCCc3ccc(Br)cc3OC(F)(F)F)CC2)n1 [Example 18, dihydrochloride]", "MCH receptor (Homo sapiens, UniProt Q99705)", "> 7.30"],
  ["CN(C)c1nc(N[C@H]2CC[C@@H](NC(=O)c3cccnc3Oc3ccccc3)CC2)ncc1F [Example 3140, hydrochloride]", "MCH receptor (Homo sapiens, UniProt Q99705)", "6.70 to 7.30"],
  ["COC(=O)c1cccc(C(=O)N[C@H]2CC[C@@H](Nc3ccc4ccccc4n3)CC2)c1 [Example 3147, hydrochloride]", "MCH receptor (Homo sapiens, UniProt Q99705)", "6.70 to 7.30"],
  ["Cc1cnc(N[C@H]2CC[C@@H](NC(=O)c3ccc(Cl)c(F)c3)CC2)nc1N(C)C [Example 3387, hydrochloride]", "MCH receptor (Homo sapiens, UniProt Q99705)", "> 7.30"],
  ["N#Cc1cccc(C(=O)N[C@H]2CC[C@@H](Nc3ccc4ccccc4n3)CC2)c1 [Example 3049, hydrochloride]", "MCH receptor (Homo sapiens, UniProt Q99705)", "> 7.30"]
]}
